test system: Leishmania infantum MHOM/MA(BE)/67/ITMAP263 intracellular amastigotes; assay: microbe, parasite or virus in culture; details: Macrophage, in Mus musculus, read-out: L. Inf. pIC50, from L. infantum intracellular amastigote IC50 (converted)
observation_type: IC50 (µM)
Numbers only, in µM.

Please go through the list and note IC50 for each molecule.
1. COc1ccc(S(C)(=O)=O)cc1S(=O)(=O)N(Cc1ccccc1)Cc1cc(C(F)(F)F)nn1C
2. CCN(Cc1ccccc1)S(=O)(=O)c1ccccc1C#N
3. CNC(=O)c1ccc(OC)c(S(=O)(=O)N(CCOC)Cc2ccccc2)c1

13.2
25.7
28.2

----------
assay: in vitro; conditions: human, HepG2 cells
observation_type: CC50

COc1ccc(OC)c(S(=O)(=O)N(Cc2ccc(F)cc2)Cc2ccc(C#N)cc2)c1 [DNDI0003388088] ... 36.2 µM
CCCCC1Nc2cc(Cl)c(S(N)(=O)=O)cc2S(=O)(=O)N1Cc1ccccc1 (centres unmarked) [DNDI0003392147] ... > 64 µM
COc1ccc(Cl)cc1S(=O)(=O)N(Cc1ccccc1)C1COC(=O)OC1 [DNDI0003392146] ... > 64 µM
COc1ccc(CNC2COC2)cc1S(=O)(=O)N(Cc1ccc(F)cc1)Cc1ccc(F)cc1 [DNDI0003389115] ... > 64 µM
O=C(c1ccc(OCC2CCCO2)c(S(=O)(=O)NCc2ccccc2)c1)N1CCOCC1 (centres unmarked) [DNDI0003407877] ... > 64 µM
CNCCOc1ccc(F)cc1S(=O)(=O)N(Cc1ccc(F)cc1)Cc1ccc(F)cc1 [DNDI0003389318] ... 6.84 µM
COc1ccc(OC)c(S(=O)(=O)N(Cc2ccc(F)cc2)Cc2ccnn2C)c1 [DNDI0003389129] ... > 64 µM

Could you now look at the following molecule, please?
Report CC50 for COc1ccc(C(=O)N2CCOCC2)cc1S(=O)(=O)N(Cc1ccc(F)cc1)Cc1ccc(F)cc1 [DNDI0003371178] please.
44.5 µM

----------
tested on: Leishmania infantum MHOM/MA(BE)/67/ITMAP263 intracellular amastigotes; experiment: microbe, parasite or virus in culture; conditions: Macrophage, in Mus musculus, read-out: L. infantum MHOM/MA(BE)/67/ITMAP263 intracellular amastigotes IC50, intracellular amastigotes
pIC50: −log10 of the molar value.
Decision: pIC50 compared against 5; not below it gives met, below it gives not met.

Some entries whose results are on file:
CNc1ncccc1S(=O)(=O)N(Cc1ccc(F)cc1)Cc1ccc(F)cc1 ... met
O=S(=O)(NC(CO)Cc1ccccc1)c1ccccc1Br (centres unmarked) ... not met
CN(C)CCOc1ccc(F)cc1S(=O)(=O)N(Cc1ccc(F)cc1)Cc1ccc(F)cc1 ... met
COC(=O)[C@H](CO)NS(=O)(=O)c1cc(Cl)ccc1OC ... not met
COc1ccc([S+](C)[O-])cc1S(=O)(=O)N(Cc1ccccc1)Cc1ccccc1 (centres unmarked) ... met

Would you say [2H]C([2H])([2H])Oc1ncccc1S(=O)(=O)N(Cc1ccc(F)cc1)Cc1ccc(F)cc1 shows pIC50 at minimum 5?
not met

Kindly determine if pIC50 recorded for COCCNc1ccc(S(=O)(=O)N(CCOC)Cc2ccccc2)cc1 is above or exactly 5.
not met

Does the compound O=S1(=O)c2cc(F)ccc2OC(c2ccc(F)cc2)CN1Cc1ccccc1 (centres unmarked) have recorded pIC50 that is 5 or more?
not met

Could you tell me if the measured pIC50 of COc1ccc(C(=O)O)cc1S(=O)(=O)N(Cc1ccccc1)Cc1ccccc1 reaches 5 or more?
not met

Dear colleague, could you confirm whether O=S(=O)(NC(CO)Cc1ccccc1)c1cc(F)ccc1F (centres unmarked) has pIC50 at or above 5?
not met

For this compound, is measured pIC50 5 or higher? COc1ccc(OC)c(S(=O)(=O)N(Cc2ccc(F)cc2)c2ccc(F)cn2)c1
not met

----------
system: Leishmania infantum MHOM/MA(BE)/67/ITMAP263 intracellular amastigotes; assay: microbe, parasite or virus in culture; settings: Macrophage, in Mus musculus, read-out: L. Inf. pIC50, from L. infantum intracellular amastigote IC50 (converted)
Answer each item with its documented IC50.
Give bare numbers, in µM.

See these solved cases before continuing.
COCCOCN1CNc2cc(OC)c(S(=O)(=O)N(Cc3ccccc3)Cc3ccccc3)cc2S1(=O)=O ... 0.661
O=S1(=O)c2cc(F)ccc2OC(c2ccc(F)cc2)CN1Cc1ccccc1 (centres unmarked) ... 20.4
COc1ccc(CNC2COC2)cc1S(=O)(=O)N(Cc1ccc(F)cc1)Cc1ccc(F)cc1 ... 1.78

Okay, now this compound:
Notebook: pull reported IC50 for Leishmania infantum MHOM/MA(BE)/67/ITMAP263 intracellular amastigotes, entry N#Cc1ccccc1S(=O)(=O)N(Cc1ccccc1)Cc1ccccc1
11.2

----------
test: in vitro; settings: human, PMA-differentiated THP-1 cells
Would you kindly list IC50 at 120 h for each of these compounds?

# count of solved cases: 3
COc1ccc(C(=O)N2CCOCC2)cc1S(=O)(=O)N(Cc1ccccc1)Cc1cnc(C(F)(F)F)nc1 ... > 64.6 µM
COc1ccc(S(C)(=O)=O)cc1S(=O)(=O)N(Cc1ccc(F)cc1)Cc1ccc(F)cc1 ... > 64.6 µM
COc1ccc(C(=O)N2CCOCC2)cc1S(=O)(=O)N(Cc1ccc(C(F)(F)F)nc1)CC(C)(C)C ... > 64.6 µM

Next compound, IC50 at 120 h to be filled in.
Would you kindly share the measured IC50 at 120 h for COc1ccc(C#N)cc1S(=O)(=O)N(Cc1ccccc1)Cc1cnc(C(F)(F)F)nc1 ?
> 64.6 µM

----------
Provide the recorded SI (vs PMM) for the entries that follow.
system: primary peritoneal mouse macrophages (PMM); conditions: PMM IC50 / L. infantum IC50

CCN(Cc1ccccc1)S(=O)(=O)c1cc(F)ccc1N1CCCC1 ... 4
CCCOc1cc(C)c(C)cc1S(=O)(=O)NC1CCCCC1 ... 6
CC[C@H](Cc1ccccc1)[S+]([O-])c1ccccc1OC (some centres unmarked) [DNDI0003362002] ... 2
CC(=O)Nc1ccc(S(=O)(=O)NCc2ccccc2)cc1 ... 1

Short answer please: SI (vs PMM), primary peritoneal mouse macrophages (PMM), entry COCCN(Cc1ccccc1)S(=O)(=O)c1cc(OC)ccc1OC
31

----------
assay: in vitro; settings: human
observation_type: CC50 at 3 days

CC(=O)Nc1ccc(S(=O)(=O)N(CCN(C)C)Cc2ccccc2)cc1 ... > 64 µM
O=S(=O)(NCc1ccc(F)cc1)c1cccnc1NCCN1CCOCC1 ... > 64 µM
COc1ccc(C(=O)N2CCOCC2)cc1S(=O)(=O)N(Cc1ccc(F)cc1)Cc1ccc(C(F)(F)F)nc1 ... > 64 µM
COc1ccc(C(=O)N2CCOCC2)cc1S(=O)(=O)N(Cc1ccccc1)CC(C)(C)C ... > 64 µM
COc1ccc(C(N)=O)cc1S(=O)(=O)N(Cc1ccccc1)Cc1ccccc1 ... 43.2 µM
CCCOc1cc(C)c(Cl)cc1S(=O)(=O)NCc1cccs1 ... > 32 µM
O=S1(=O)c2cc(F)ccc2OCCN1Cc1ccccc1 ... > 64 µM

Below: the item to evaluate.
// lookup CC50 at 3 days for CCN(Cc1ccc(F)cc1)S(=O)(=O)c1cc(Cl)ccc1OC
59.5 µM

----------
tested on: Leishmania infantum MHOM/MA(BE)/67/ITMAP263 intracellular amastigotes; assay: microbe, parasite or virus in culture; conditions: Macrophage, in Mus musculus, read-out: L. Inf. pIC50, from L. infantum intracellular amastigote IC50 (converted)
observation_type: log10 IC50 (log10 of the value in µM)
Log10 applied to IC50; unit prior to transform: µM.

For every item in the list below, what is its measured log10 IC50?
1. COc1ccc(Cl)cc1S(=O)(=O)N(CC(=O)c1ccc(F)cc1)Cc1ccccc1
2. COc1ccc(OC)c(S(=O)(=O)N(Cc2ccccc2)Cc2ccccc2)c1
3. COc1ccc(OC)c(S(=O)(=O)N(CCO)Cc2ccccc2)c1
4. COCCN(Cc1ccc(F)cc1)S(=O)(=O)c1cc(C(=O)N2CCOCC2)ccc1OC
5. O=C1c2ccccc2S(=O)(=O)N(Cc2ccccc2)C1Cc1ccccc1 (centres unmarked)
6. COc1ccc(Cl)cc1S(=O)(=O)N(Cc1ccccc1)C(Cc1ccccc1)C(N)=O (centres unmarked)

[1.62, -0.43, 1.72, 1.35, 1.07, 0.67]

----------
Kindly state IC50 for each of the entries shown.
tested on: Leishmania infantum MHOM/MA(BE)/67/ITMAP263 intracellular amastigotes; assay: microbe, parasite or virus in culture; settings: Macrophage, in Mus musculus, read-out: L. Inf. pIC50, from L. infantum intracellular amastigote IC50 (converted)
One number for each entry, in µM.

COc1ccc(CN2CCOCC2)cc1S(=O)(=O)N(Cc1ccc(F)cc1)Cc1ccc(F)cc1 ... 0.525

Now look at this one.
GET /values?readout=IC50&item= COc1ccc(C#N)cc1S(=O)(=O)N(Cc1ccc(F)cc1)Cc1oc(C)nc1C
7.94
